- SYSTEM UNDER TEST: T1, mouse folate receptor alpha (mFRα), recombinant protein (mouse, UniProt P35846 25-232)
- T1 construct: Bought recombinant proteins (e.g. biotinylated, Acro Biosystems FO1-M82E9); also called mFOLR1; Ms FOLR1
- T1 sequence (P35846 25-232 limits assumed): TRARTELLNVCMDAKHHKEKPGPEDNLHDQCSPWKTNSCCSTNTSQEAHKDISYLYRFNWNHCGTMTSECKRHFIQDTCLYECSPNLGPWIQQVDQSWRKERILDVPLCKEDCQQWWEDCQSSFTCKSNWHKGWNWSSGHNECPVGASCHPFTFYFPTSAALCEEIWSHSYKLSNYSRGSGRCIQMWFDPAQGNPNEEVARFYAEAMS
- METHOD: BLI, Avi-biotinylated FRα on streptavidin biosensors, VHH 100 nM
MEASURED ENDPOINT: koff
Kindly write the number and append the unit.

Recorded koff, per entry:
BINDER: P01500006: 2HF042(Q1E, Q5V, A14P, V40A, L79Y, K83R, Q108L)-FLAG3-HIS6 (VHH, Entry includes the tags; also called P0150006) VHH: EVQLVESGGGLVQPGGSLRLSCAASGSGFSGMIMGWYRQAPGKQRELVATVTSHGTTNYADSVKGRFTISRDNAKNTVYLQMNSLRPEDTAVYYCNAHFPGIYWGKGTLVTVSS
koff: 0.00252 s⁻¹
//
BINDER: P01500003: 2HF019(Q1E, Q5V, Q108L)-HIS6 (VHH, Entry includes the tag; also called 2HFO19 (P01500003); Nb19) VHH: EVQLVESGGGLVQPGGSLRVSCAASGFPFSTVYMSWVRQAPGKGLEWVSGINNDGGVIDYADSVKGRFTISRDNAKNTLYLQLNSLKPEDTALYFCARGRSFVATLSSSLRGQGTLVTVSS
koff: 0.00052 s⁻¹
//
BINDER: P01500005: 2MFR67(Q1E, Q5V, Q108L)-HIS6 (VHH, Entry includes the tag; also called 2MFR67 (P01500005); P0150005) VHH: EVQLVESGGGLVQAGGSLRLSCAASGSGFSGMIMGWYRQAPGKQRELVATVTSHGTTNYADSVKGRFTISREDSKNTVLLQMNSLKPEDTAVYYCNAHFPGIYWGKGTLVTVSS
koff: 0.000532 s⁻¹

Then this binder:
Q: Complete the entry with koff for P01500004: 2HF042(Q1E, Q5V, Q108L)-HIS6 (VHH, Entry includes the tag; also called 2HFO42 (P01500004); Nb42) VHH: EVQLVESGGGLVQAGGSLRLSCAASGSGFSGMIMGWYRQVPGKQRELVATVTSHGTTNYADSVKGRFTISRDNAKNTVLLQMNSLKPEDTAVYYCNAHFPGIYWGKGTLVTVSS
Result: 0.00193 s⁻¹

The measurements presented in this section are drawn from patent US20250304677A1.
